targetEntity: Factor X (FX), P00742
Sequence (P00742 whole entry, looked up): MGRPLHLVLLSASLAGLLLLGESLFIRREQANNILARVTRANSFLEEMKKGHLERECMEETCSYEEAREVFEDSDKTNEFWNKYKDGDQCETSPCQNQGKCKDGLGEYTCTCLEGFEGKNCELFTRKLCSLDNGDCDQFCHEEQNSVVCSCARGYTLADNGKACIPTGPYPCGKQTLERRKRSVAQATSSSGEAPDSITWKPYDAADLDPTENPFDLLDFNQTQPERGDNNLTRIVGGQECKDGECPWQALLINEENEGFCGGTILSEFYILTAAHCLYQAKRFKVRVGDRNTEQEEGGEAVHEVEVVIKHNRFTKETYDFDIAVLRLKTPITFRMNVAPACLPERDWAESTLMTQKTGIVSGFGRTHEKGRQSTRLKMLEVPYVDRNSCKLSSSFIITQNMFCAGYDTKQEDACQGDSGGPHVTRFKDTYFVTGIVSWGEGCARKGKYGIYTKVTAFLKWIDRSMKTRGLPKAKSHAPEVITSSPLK
Provide the reported % of WT kcat/KM of each item.
Give bare numbers, in %.

Please review the following examples before continuing.
>>> reading("FIXa-I251S/R318Y/R338E/E410N (protein) chain 1: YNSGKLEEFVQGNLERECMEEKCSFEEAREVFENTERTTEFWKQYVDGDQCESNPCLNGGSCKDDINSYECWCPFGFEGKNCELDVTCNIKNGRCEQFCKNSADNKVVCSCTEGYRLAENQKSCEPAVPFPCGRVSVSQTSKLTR chain 2: VVGGEDAKPGQFPWQVVLNGKVDAFCGGSIVNEKWIVTAAHCVETGVKITVVAGEHNIEETEHTEQKRNVSRIIPHHNYNAAINKYNHDIALLELDEPLVLNSYVTPICIADKEYTNIFLKFGSGYVSGWGRVFHKGYSALVLQYLRVPLVDRATCLESTKFTIYNNMFCAGFHEGGRDSCQGDSGGPHVTEVEGTSFLTGIISWGEECAMKGKYGIYTKVSRYVNWIKNKTKLT")
849
>>> reading("FIXa variant D104N/K106S/R318Y/R338E/R403E/E410N (protein) chain 1: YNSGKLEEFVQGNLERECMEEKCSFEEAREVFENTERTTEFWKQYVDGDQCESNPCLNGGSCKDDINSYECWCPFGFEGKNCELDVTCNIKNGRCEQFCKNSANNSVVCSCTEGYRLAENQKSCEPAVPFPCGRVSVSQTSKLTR chain 2: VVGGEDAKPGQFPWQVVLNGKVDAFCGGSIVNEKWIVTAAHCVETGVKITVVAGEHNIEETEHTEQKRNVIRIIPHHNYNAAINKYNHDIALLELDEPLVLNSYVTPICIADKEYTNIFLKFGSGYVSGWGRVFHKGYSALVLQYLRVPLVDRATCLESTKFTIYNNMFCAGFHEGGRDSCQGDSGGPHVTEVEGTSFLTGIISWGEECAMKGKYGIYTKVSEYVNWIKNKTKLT")
366

Attention now shifts to the item below.
Q: Bench note: what % of WT kcat/KM did FIXa-Y155F/R338E/T343R/E410N (protein) chain 1: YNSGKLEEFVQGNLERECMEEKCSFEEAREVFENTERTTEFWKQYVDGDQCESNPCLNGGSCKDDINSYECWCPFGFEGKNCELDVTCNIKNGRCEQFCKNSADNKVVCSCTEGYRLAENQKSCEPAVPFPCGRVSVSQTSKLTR chain 2: VVGGEDAKPGQFPWQVVLNGKVDAFCGGSIVNEKWIVTAAHCVETGVKITVVAGEHNIEETEHTEQKRNVIRIIPHHNYNAAINKYNHDIALLELDEPLVLNSYVTPICIADKEYTNIFLKFGSGYVSGWGRVFHKGRSALVLQYLRVPLVDRATCLESTKFRIYNNMFCAGFHEGGRDSCQGDSGGPHVTEVEGTSFLTGIISWGEECAMKGKYGIYTKVSRYVNWIKNKTKLT show?
Ans: 761
